Assay: Aqueous solubility at ambient temperature
Format: physicochemical
Settings: in water
measurement-kind: solubility (mg/mL)

[[record]]
compound = "CC(C)C[C@@H](C(=O)NC1CCCCCCCCCCNC1=O)[C@H](O)C(=O)NO (some centres unmarked) [Example 5]"
measurement_kind = "solubility"
result_number = 0.14

[[record]]
compound = "CNC(=O)[C@H](Cc1ccc(OCC(=O)O)cc1)NC(=O)[C@H](CC(C)C)[C@H](O)C(=O)NO [Example 2]"
measurement_kind = "solubility"
result_number = 13.1

[[record]]
compound = "CNC(=O)[C@H](Cc1ccc(-c2ccccc2)cc1)NC(=O)[C@H](CC(C)C)[C@H](O)C(=O)NO [Example 4]"
measurement_kind = "solubility"
result_number = 0.11

[[record]]
compound = "CNC(=O)[C@@H](NC(=O)[C@H](CC(C)C)[C@H](O)C(=O)NO)C(C)(C)C [Example 10]"
measurement_kind = "solubility"
result_number = 1.4

[[record]]
compound = "CNC(=O)[C@H](Cn1cccn1)NC(=O)[C@H](CC(C)C)[C@H](O)C(=O)NO [Example 6]"
measurement_kind = "solubility"
result_number = 0.33

[[record]]
compound = "CC(C)C[C@@H](C(=O)N[C@@H](CC1CCCCC1)C(=O)NCCCN1CCCC1=O)[C@H](O)C(=O)NO [Example 9]"
measurement_kind = "solubility"
result_number = 1.8


(A) CNC(=O)[C@H](CCC(=O)NO)NC(=O)[C@H](CC(C)C)[C@H](O)C(=O)NO [Example 7]
(B) CNC(=O)[C@@H](NC(=O)[C@H](CC(C)C)[C@H](O)C(=O)NO)c1ccccc1 [Example 3]
Qu. Please state the entry with greater solubility among A and B . The response must carry the label of the picked entry.
Ans. B
